- target_of_assay: Peroxisome proliferator-activated receptor gamma (Homo sapiens)
- measurement_notes: Agonist activity at human PPARgamma at 100 uM by GAL4 transactivation assay relative to Rosiglitazone
Each entry below carries its reported pEC50.
Remember the convention: pEC50 equals -log10 of concentration in molar.

CCO[C@@H](Cc1ccc(OCCc2ccc(OS(C)(=O)=O)cc2)cc1)C(=O)O | 7.43
COC(=O)C(Cc1ccc(OCCN2CCC(C)(C)c3cc(C(N=O)c4ccccc4)ccc32)cc1)C(=O)OC (centres undefined) | 6.71
COC(=O)C(Cc1ccc(OCCN2CCC(C)(C)c3cc(C(=O)c4ccccc4)ccc32)cc1)C(=O)OC | 6.82

Let us move to another entry and its pEC50.
Item under review: CCOC(=O)C(Cc1ccc(OCCN2CCC(C)(C)c3cc(C(N=O)c4ccccc4)ccc32)cc1)OCC (centres undefined) . Reported pEC50?
7.32
